Molecular target: CHEK2 (human) (UniProt O96017)
Sequence (O96017 whole entry, looked up): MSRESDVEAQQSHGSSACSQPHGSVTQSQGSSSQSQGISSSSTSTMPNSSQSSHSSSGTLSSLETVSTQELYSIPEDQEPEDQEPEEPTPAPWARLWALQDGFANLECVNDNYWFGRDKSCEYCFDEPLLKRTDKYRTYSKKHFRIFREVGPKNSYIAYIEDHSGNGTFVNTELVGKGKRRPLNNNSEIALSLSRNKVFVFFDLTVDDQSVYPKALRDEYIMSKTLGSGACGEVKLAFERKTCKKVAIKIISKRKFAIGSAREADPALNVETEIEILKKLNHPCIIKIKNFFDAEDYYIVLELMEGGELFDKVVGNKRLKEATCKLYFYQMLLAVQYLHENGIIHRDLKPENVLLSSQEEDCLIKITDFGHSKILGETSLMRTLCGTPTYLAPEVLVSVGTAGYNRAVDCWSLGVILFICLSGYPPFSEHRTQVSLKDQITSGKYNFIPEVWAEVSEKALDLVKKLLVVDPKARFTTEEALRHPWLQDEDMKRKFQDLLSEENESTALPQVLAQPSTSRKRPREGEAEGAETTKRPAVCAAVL
Test: radiometric filter-binding kinase assay
Details: compound 1.0 µM
Quantity: residual activity (%)

In the examples that follow, each entry is paired with its recorded residual activity.
- Molecule: "Cn1c(=O)c2c(ncn2C)n(C)c1=O"
  Quantity: "residual activity"
  Reported Value: 83
- Molecule: "CCCC(CCC)C(=O)O"
  Quantity: "residual activity"
  Reported Value: 83

[A] C=CC(=O)N1CCC[C@@H](n2nc(-c3ccc(Oc4ccccc4)cc3)c3c(N)ncnc32)C1
[B] NC(=O)c1cc2c(-c3cccc(-c4ccccc4)c3)cnc(N)c2s1
[C] CC1=C(CO)C(=O)O[C@@H]([C@@H](C)[C@H]2CC[C@H]3[C@@H]4C[C@H]5O[C@]56[C@@H](O)C=CC(=O)[C@]6(C)C4CC[C@]23C)C1 (stereo not given in full)
Ask: Put the entries in order of residual activity, starting with the largest number. State the ranking by listing the labels in the requested order.
Result: C, A, B

* * *

Target: INSR (human)
Test: radiometric filter-binding kinase assay
Settings: compound 10.0 µM
Quantity: residual activity (%)

In the examples that follow, each entry is paired with its recorded residual activity.
- Test Smiles: "NC1(c2ccc(-c3nc4ccn5c(=O)[nH]nc5c4cc3-c3ccccc3)cc2)CCC1"
  Reported Value: 83
- Test Smiles: "FC(F)(F)c1ccc(-c2ccc(Oc3cncc4sc(-c5nn[nH]n5)cc34)cc2)cc1"
  Reported Value: 91
- Test Smiles: "O=C(Nc1ccccc1-c1cn2c(CN3CCNCC3)csc2n1)c1cnc2ccccc2n1"
  Reported Value: 100

[A] NS(=O)(=O)OC[C@@H]1C[C@@H](n2ccc3c(N[C@H]4CCc5ccccc54)ncnc32)C[C@@H]1O
[B] Cc1ccc(Sc2cnc(Nc3cccc(Br)n3)s2)cc1C(=O)N1CCN(C(=O)CN)CC1
Ask: Determine, for A and B , which has the greater value of residual activity. Give the label under which the chosen entry appears.
Result: A

* * *

Target: MKNK2 (human) (UniProt Q9HBH9)
Sequence (Q9HBH9 whole entry, looked up): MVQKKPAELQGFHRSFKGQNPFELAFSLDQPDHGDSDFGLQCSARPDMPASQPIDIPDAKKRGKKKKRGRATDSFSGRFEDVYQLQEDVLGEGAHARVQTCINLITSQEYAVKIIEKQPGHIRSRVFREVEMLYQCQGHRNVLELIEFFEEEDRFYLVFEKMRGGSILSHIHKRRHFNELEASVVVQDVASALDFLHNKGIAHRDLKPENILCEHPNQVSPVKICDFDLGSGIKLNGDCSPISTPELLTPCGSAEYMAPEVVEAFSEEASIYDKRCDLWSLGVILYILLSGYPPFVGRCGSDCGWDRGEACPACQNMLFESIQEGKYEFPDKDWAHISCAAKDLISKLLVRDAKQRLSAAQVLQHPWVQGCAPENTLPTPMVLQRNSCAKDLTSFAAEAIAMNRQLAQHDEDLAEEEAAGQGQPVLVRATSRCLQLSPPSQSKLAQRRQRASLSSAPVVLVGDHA
Assay: radiometric filter-binding kinase assay
Conditions: compound 1.0 µM
Quantity: residual activity (%)

- Compound: "CNc1nc(-c2ccc3c(N)n[nH]c3c2)cc(N2C[C@@H](C(=O)NC3CCCCC3)CC[C@H]2C)n1"
  Tgt: "MKNK2 (human) (UniProt Q9HBH9)"
  residual activity [%]: 80

[1] CC(C)(C#N)c1ccc(N2C(=O)OCc3cnc4ccc(-c5cnc6ccccc6c5)cc4c32)cc1
[2] O=c1c(O)c(-c2ccc(O)c(O)c2)oc2cc(O)c(O)c(O)c12
Ask: Determine, for 1 and 2 , which has the greater value of residual activity. Give the label under which the chosen entry appears.
Result: 1

* * *

Target: NUAK1 (human) (UniProt O60285)
Sequence (O60285 whole entry, looked up): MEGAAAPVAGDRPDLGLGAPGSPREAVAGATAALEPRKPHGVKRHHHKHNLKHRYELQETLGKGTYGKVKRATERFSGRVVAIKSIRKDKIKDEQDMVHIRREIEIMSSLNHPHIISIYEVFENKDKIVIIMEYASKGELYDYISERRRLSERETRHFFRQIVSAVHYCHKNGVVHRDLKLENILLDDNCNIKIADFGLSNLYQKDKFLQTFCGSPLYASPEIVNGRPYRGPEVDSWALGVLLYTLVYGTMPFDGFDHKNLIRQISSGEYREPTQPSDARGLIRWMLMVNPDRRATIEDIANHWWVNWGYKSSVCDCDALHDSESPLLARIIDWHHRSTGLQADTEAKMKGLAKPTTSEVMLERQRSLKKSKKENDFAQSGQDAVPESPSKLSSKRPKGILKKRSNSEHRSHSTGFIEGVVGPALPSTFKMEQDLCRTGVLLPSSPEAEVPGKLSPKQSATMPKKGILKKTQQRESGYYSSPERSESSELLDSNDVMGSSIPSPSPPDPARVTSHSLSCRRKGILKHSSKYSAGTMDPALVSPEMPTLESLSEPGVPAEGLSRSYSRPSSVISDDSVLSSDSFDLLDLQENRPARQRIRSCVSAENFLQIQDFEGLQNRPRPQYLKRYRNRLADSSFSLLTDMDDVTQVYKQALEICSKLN
Assay: radiometric filter-binding kinase assay
Settings: compound 10.0 µM
Quantity: residual activity (%)

In the examples that follow, each entry is paired with its recorded residual activity.
- Molecule: "O=C(N[C@@H](COc1ccc2[nH]c(=O)[nH]c2c1)c1ccccc1)c1cccn(Cc2ccc(F)c(F)c2)c1=O"
  Units: "%"
  residual activity: 98
- Molecule: "NC(=O)c1cc2c(-c3cccc(-c4ccccc4)c3)cnc(N)c2s1"
  Units: "%"
  residual activity: 6
- Molecule: "O=S(=O)(c1ccc(F)c2nonc12)N1CCN(c2ncc(C(F)(F)F)cc2Cl)CC1"
  Units: "%"
  residual activity: 90
- Molecule: "Cc1ccc2c(c1)C(=O)[C@@]1(O)CCN(c3ccccc3)C1=N2"
  Units: "%"
  residual activity: 97
- Molecule: "O=C(O)c1ccc(-c2c[nH]c3ncc(-c4ccccc4)cc23)cc1C1CCCC1"
  Units: "%"
  residual activity: 10

[I] Oc1ccc(/C=C/c2cc(O)cc(O)c2)cc1
[II] C=CC(=O)N1CCC[C@@H](n2nc(-c3ccc(Oc4ccccc4)cc3)c3c(N)ncnc32)C1
Ask: Determine, for I and II , which has the greater value of residual activity. Give the label under which the chosen entry appears.
Result: I
(I: 68%, II: 26%)

[A] FC(F)(F)c1ccc(-c2ccc(Oc3cncc4sc(-c5nn[nH]n5)cc34)cc2)cc1
[B] CNc1nc(-c2ccc3c(N)n[nH]c3c2)cc(N2C[C@@H](C(=O)NC3CCCCC3)CC[C@H]2C)n1
[C] c1ccc2c(-c3cnn4cc(-c5ccc(N6CCNCC6)cc5)cnc34)ccnc2c1
Ask: Put the entries in order of residual activity, starting with the largest number. State the ranking by listing the labels in the requested order.
Result: A, B, C
(A: 88%, B: 9%, C: 5%)

[1] NS(=O)(=O)OC[C@@H]1C[C@@H](n2ccc3c(N[C@H]4CCc5ccccc54)ncnc32)C[C@@H]1O
[2] COc1cc(C(=O)N2CCOCC2)c(F)cc1Nc1ncc(C(F)(F)F)c(NC2CC2)n1
[3] COc1cc2ncn(-c3cc(OCc4ccccc4S(C)(=O)=O)c(C#N)s3)c2cc1OC
Ask: Form: Sort by [residual activity] Order [ ascending ] State the ranking by listing the labels in the requested order.
Result: 2, 3, 1

* * *

Molecular target: CDK2 CCNA2 (human) (UniProt P20248+P24941)
Assay: radiometric filter-binding kinase assay
Details: compound 0.1 µM
Quantity: residual activity (%)

- Compound: "Cc1cccc(-c2nn(C(=S)Nc3ccccc3)cc2-c2ccnc3ccccc23)n1"
  residual activity / %: 93

[A] C/C(=C1/C(=O)Nc2ccc(NC(N)=O)cc21)c1ccc[nH]1
[B] COc1ccc(-n2ncc3cnc(Nc4cc(OC)c(OC)c(OCCCN5CCN(C)CC5)c4)nc32)cc1
Ask: Please choose the item with the lower residual activity value from this pair: A and B Give the label under which the chosen entry appears.
Result: B

* * *

Molecular target: IGF1R (human)
Experiment: radiometric filter-binding kinase assay
Settings: compound 10.0 µM
Quantity: residual activity (%)

- Molecule: "CC(C)C[C@H](NC(=O)CNC(=O)c1cc(Cl)ccc1Cl)B1OC(=O)CC(CC(=O)O)(C(=O)O)O1 (stereo partly drawn)"
  residual activity / %: 87
- Molecule: "O=C(Nc1cccnc1)c1cc(-c2ccnc(F)c2)ccc1OCc1ccccc1"
  residual activity / %: 117
- Molecule: "CCCCCc1ccc(/C=C/[C@H](O)[C@@H](CO)NC)cc1"
  residual activity / %: 93

* * *

Target: UniProtKB O96017
Experiment: radiometric filter-binding kinase assay
Conditions: compound 0.1 µM
Quantity: residual activity (%)

- Molecule: "CN(C)C/C=C/C(=O)Nc1cccc(C(=O)Nc2ccc(Nc3nccc(-c4cccnc4)n3)cc2)c1"
  Units: "%"
  residual activity: 89

[I] Cc1ccc(Sc2cnc(Nc3cccc(Br)n3)s2)cc1C(=O)N1CCN(C(=O)CN)CC1
[II] Cc1cccc(-c2nn(C(=S)Nc3ccccc3)cc2-c2ccnc3ccccc23)n1
Ask: Determine, for I and II , which has the greater value of residual activity. Give the label under which the chosen entry appears.
Result: II

* * *

Target: DYRK1A (human)
Test: radiometric filter-binding kinase assay
Conditions: compound 0.1 µM
Quantity: residual activity (%)

In the examples that follow, each entry is paired with its recorded residual activity.
- Compound: "Cc1cccc(-c2nn(C(=S)Nc3ccccc3)cc2-c2ccnc3ccccc23)n1"
  Tgt: "DYRK1A (human)"
  residual activity / %: 109
- Compound: "O=C(Nc1ccccc1-c1cn2c(CN3CCNCC3)csc2n1)c1cnc2ccccc2n1"
  Tgt: "DYRK1A (human)"
  residual activity / %: 101
- Compound: "O=C(N[C@@H](COc1ccc2[nH]c(=O)[nH]c2c1)c1ccccc1)c1cccn(Cc2ccc(F)c(F)c2)c1=O"
  Tgt: "DYRK1A (human)"
  residual activity / %: 113

[A] Cc1ccc(Sc2cnc(Nc3cccc(Br)n3)s2)cc1C(=O)N1CCN(C(=O)CN)CC1
[B] CNC(=O)C1[C@H]2O[C@@](C)([C@@H]1N)n1c3ccccc3c3c4c(c5c6ccccc6n2c5c31)C(=O)NC4 (stereo not given in full)
Ask: Determine, for A and B , which has the greater value of residual activity. Give the label under which the chosen entry appears.
Result: A

* * *

System: AKT1 (human), P31749 [S473D]
Sequence (P31749 whole entry S473D, looked up): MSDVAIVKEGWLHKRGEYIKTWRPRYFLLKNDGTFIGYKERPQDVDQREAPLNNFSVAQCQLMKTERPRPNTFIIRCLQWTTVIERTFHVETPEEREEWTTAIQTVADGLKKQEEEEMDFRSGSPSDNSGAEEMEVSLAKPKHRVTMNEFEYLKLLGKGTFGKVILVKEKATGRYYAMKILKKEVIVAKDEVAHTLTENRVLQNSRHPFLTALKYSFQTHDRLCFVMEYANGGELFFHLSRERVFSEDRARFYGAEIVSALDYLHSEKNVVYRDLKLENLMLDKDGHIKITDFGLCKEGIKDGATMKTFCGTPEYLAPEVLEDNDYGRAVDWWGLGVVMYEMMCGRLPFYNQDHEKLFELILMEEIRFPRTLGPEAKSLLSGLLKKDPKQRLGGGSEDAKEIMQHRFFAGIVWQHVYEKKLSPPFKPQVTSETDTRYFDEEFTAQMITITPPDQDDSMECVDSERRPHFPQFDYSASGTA
Assay: radiometric filter-binding kinase assay
Conditions: compound 100.0 µM
Quantity: residual activity (%)

- Test Smiles: "Cc1ccc2c(c1)C(=O)[C@@]1(O)CCN(c3ccccc3)C1=N2"
  residual activity, %: 88
- Test Smiles: "N#Cc1c(O)c2c(-c3ccc(-c4ccccc4O)cc3)csc2[nH]c1=O"
  residual activity, %: 78
- Test Smiles: "Cc1cc(N=Nc2cc(S(=O)(=O)O)c(C)cc2C)c(N)cc1O"
  residual activity, %: 108
- Test Smiles: "COC(=O)/C=C/C(=O)OC"
  residual activity, %: 94

* * *

Target: TBK1 (human) (UniProt Q9UHD2)
Sequence (Q9UHD2 whole entry, looked up): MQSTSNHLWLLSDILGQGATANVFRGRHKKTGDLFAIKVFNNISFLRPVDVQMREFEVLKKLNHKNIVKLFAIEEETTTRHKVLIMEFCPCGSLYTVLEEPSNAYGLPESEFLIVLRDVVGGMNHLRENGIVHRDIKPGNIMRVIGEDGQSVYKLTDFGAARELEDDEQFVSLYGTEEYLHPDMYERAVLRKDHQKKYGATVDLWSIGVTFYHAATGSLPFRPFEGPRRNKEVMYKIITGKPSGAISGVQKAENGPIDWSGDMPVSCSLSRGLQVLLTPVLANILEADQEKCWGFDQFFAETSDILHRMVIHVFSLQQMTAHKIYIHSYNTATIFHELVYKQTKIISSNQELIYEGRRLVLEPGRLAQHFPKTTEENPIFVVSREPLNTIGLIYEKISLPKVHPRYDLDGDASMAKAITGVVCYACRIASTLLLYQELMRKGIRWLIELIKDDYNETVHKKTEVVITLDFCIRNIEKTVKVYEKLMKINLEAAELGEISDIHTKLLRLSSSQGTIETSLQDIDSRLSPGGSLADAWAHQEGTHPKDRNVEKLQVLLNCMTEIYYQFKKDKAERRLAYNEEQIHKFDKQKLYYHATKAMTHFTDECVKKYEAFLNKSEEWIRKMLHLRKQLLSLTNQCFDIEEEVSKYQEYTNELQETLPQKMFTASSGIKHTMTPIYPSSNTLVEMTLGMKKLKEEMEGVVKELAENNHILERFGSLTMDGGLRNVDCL
Assay: radiometric filter-binding kinase assay
Settings: compound 1.0 µM
Quantity: residual activity (%)

- Compound: "C=C1C(=O)OC2C1CC/C(C)=C/CCC1(C)OC21 (stereo not given)"
  Units: "%"
  residual activity: 104
- Compound: "O=C(O)c1ccc(-c2c[nH]c3ncc(-c4ccccc4)cc23)cc1C1CCCC1"
  Units: "%"
  residual activity: 70
- Compound: "CN(C)C/C=C/C(=O)Nc1cccc(C(=O)Nc2ccc(Nc3nccc(-c4cccnc4)n3)cc2)c1"
  Units: "%"
  residual activity: 79
- Compound: "Nc1cccc2c1CN(C1CCC(=O)NC1=O)C2=O (stereo not given)"
  Units: "%"
  residual activity: 95
- Compound: "O=C1Nc2nc(-c3c(O)cccc3OCC3CC3)cc(C3CCCNC3)c2CO1 (stereo not given)"
  Units: "%"
  residual activity: 91
